system: HT-29; test: Growth inhibition of human HT-29 cells after 48 hrs; type: functional; details: HT-29, 48 h, read-out: pTGI (converted)
measurement-name: TGI (µM)
Report the figure in µM without appending any unit label.

Please report the measured TGI for CC1=C(SCCC(=O)OCC(=O)NCCC[Te]c2ccccc2)C(=O)c2ccccc2C1=O tested on HT-29. 11

Give TGI; test system HT-29; compound COc1ccc(N(CC(=O)NCCC[Te]c2ccccc2)C(=O)CNC(=O)OC(C)(C)C)cc1 13.8

Tell me its TGI on HT-29: COc1ccc(N(CC(=O)NCCC[Te]c2ccccc2)C(=O)CCSC2=C(C)C(=O)c3ccccc3C2=O)cc1 4.9

###

test system: Micrococcus luteus; assay: Antimicrobial activity against Micrococcus luteus assessed as inhibition at 20 ug/6 mm disk after 1 to 2 days by agar diffusion assay; format: functional
measurement-name: diameter of the inhibition zone (DIZ)
Answer format reminder: number followed by unit.

Please report diameter of the inhibition zone (DIZ) for the following molecule: O=C(COC(=O)/C=C/c1ccccc1)NCCC[Te]c1ccccc1 7 mm

Report diameter of the inhibition zone (DIZ) for CC1=C(SCCC(=O)OCC(=O)NCCC[Te]c2ccccc2)C(=O)c2ccccc2C1=O 11 mm

Given COc1ccc(N(CC(=O)NCCC[Te]c2ccccc2)C(=O)CNC(=O)OC(C)(C)C)cc1 , respond with its diameter of the inhibition zone (DIZ). 7 mm

Answer with the recorded diameter of the inhibition zone (DIZ) of COc1ccc(N(CC(=O)NCCC[Se]c2ccccc2)C(=O)CNC(=O)OC(C)(C)C)cc1 only. 0 mm

Report diameter of the inhibition zone (DIZ) for COc1ccc(N(CC(=O)NCCCSc2ccccc2)C(=O)C#Cc2ccccc2)cc1 0 mm

Kindly indicate its recorded diameter of the inhibition zone (DIZ). Item: COc1ccc(N(CC(=O)NCCC[Se]c2ccccc2)C(=O)CCSC2=C(C)C(=O)c3ccccc3C2=O)cc1 7 mm

Note down diameter of the inhibition zone (DIZ) recorded for COc1ccc(N(CC(=O)NCCCSc2ccccc2)C(=O)CCSC2=C(C)C(=O)c3ccccc3C2=O)cc1 0 mm

# return recorded diameter of the inhibition zone (DIZ) for input COc1ccc(N(CC(=O)NCCCSc2ccccc2)C(=O)/C=C/c2ccccc2)cc1 0 mm

Give the reported value of diameter of the inhibition zone (DIZ) for this record: COc1ccc(N(CC(=O)NCCCSc2ccccc2)C(=O)c2ccccc2)cc1 0 mm

State its diameter of the inhibition zone (DIZ) for this molecule: CC(C)(C)OC(=O)NCC(=O)OCC(=O)NCCC[Te]c1ccccc1 7 mm

###

assay: Growth inhibition of human OVCAR8 cells after 48 hrs; format: functional; settings: OVCAR-8, 48 h, read-out: pTGI (converted)
measurement-name: TGI (µM)
The reply should be a number in µM, with the unit left off.

Return the recorded TGI value; entry: COc1ccc(N(CC(=O)NCCC[Te]c2ccccc2)C(=O)CNC(=O)OC(C)(C)C)cc1 6.92

Check the records and state TGI for COc1ccc(N(CC(=O)NCCC[Te]c2ccccc2)C(=O)CCSC2=C(C)C(=O)c3ccccc3C2=O)cc1 3.8

State, in one line, measured TGI of CC1=C(SCCC(=O)OCC(=O)NCCC[Te]c2ccccc2)C(=O)c2ccccc2C1=O 11.5

Give the reported value of TGI for this record: COc1ccc(N(CC(=O)NCCC[Te]c2ccccc2)C(=O)c2ccccc2)cc1 8.13

###

test system: SK-MEL-28; experiment: Growth inhibition of human SK-MEL-28 cells after 48 hrs; type: functional; conditions: SK-MEL-28, 48 h, read-out: pTGI (converted)
Give TGI for every item shown.
Report the figure in µM without appending any unit label.

Hello, please tell me recorded TGI for this one: COc1ccc(N(CC(=O)NCCC[Te]c2ccccc2)C(=O)CCSC2=C(C)C(=O)c3ccccc3C2=O)cc1 4.68

Supply reported TGI belonging to this compound: CC1=C(SCCC(=O)OCC(=O)NCCC[Te]c2ccccc2)C(=O)c2ccccc2C1=O 5.5

Note down TGI recorded for COc1ccc(N(CC(=O)NCCC[Te]c2ccccc2)C(=O)CNC(=O)OC(C)(C)C)cc1 10

Report TGI for COc1ccc(N(CC(=O)NCCC[Te]c2ccccc2)C(=O)c2ccccc2)cc1 15.5

###

Assign TGI to each entry below.
test system: SF-268; test: Growth inhibition of human SF268 cells after 48 hrs; assay type: functional; conditions: SF-268, 48 h, read-out: pTGI (converted)
Note: a bare number is incomplete; add the unit.

Report TGI, nothing else, for this compound: CC1=C(SCCC(=O)OCC(=O)NCCC[Te]c2ccccc2)C(=O)c2ccccc2C1=O 9.55 µM

Find the measured TGI of COc1ccc(N(CC(=O)NCCC[Te]c2ccccc2)C(=O)c2ccccc2)cc1 and report it. 10.7 µM

For the compound COc1ccc(N(CC(=O)NCCC[Te]c2ccccc2)C(=O)CNC(=O)OC(C)(C)C)cc1 , report TGI. 7.59 µM

Provide one value: measured TGI of COc1ccc(N(CC(=O)NCCC[Te]c2ccccc2)C(=O)CCSC2=C(C)C(=O)c3ccccc3C2=O)cc1 1.86 µM

###

tested on: HL-60(TB); assay: Growth inhibition of human HL-60(TB) cells after 48 hrs; assay type: functional; settings: HL-60, 48 h
Field: GI50. Provide a value for each of the molecules that follow.
Report as a plain number; the unit nM is understood.

Supply reported GI50 belonging to this molecule: COc1ccc(N(CC(=O)NCCC[Te]c2ccccc2)C(=O)CCSC2=C(C)C(=O)c3ccccc3C2=O)cc1 2880

Give the reported GI50 for this molecule. COc1ccc(N(CC(=O)NCCC[Te]c2ccccc2)C(=O)CNC(=O)OC(C)(C)C)cc1 2090

Fill in reported GI50 for this entry: CC1=C(SCCC(=O)OCC(=O)NCCC[Te]c2ccccc2)C(=O)c2ccccc2C1=O 2570

Give recorded GI50. COc1ccc(N(CC(=O)NCCC[Te]c2ccccc2)C(=O)c2ccccc2)cc1 2140

###

assay: Growth inhibition of human UACC62 cells after 48 hrs; assay type: functional; conditions: UACC-62, 48 h, read-out: pLC50 (the source's name) (converted)
measurement-name: CC50 (µM)
Numeric answer only, unit µM assumed.

For the compound CC1=C(SCCC(=O)OCC(=O)NCCC[Te]c2ccccc2)C(=O)c2ccccc2C1=O , report CC50. 13.5

Consider the compound COc1ccc(N(CC(=O)NCCC[Te]c2ccccc2)C(=O)c2ccccc2)cc1 and give its recorded CC50. 43.7

Please report CC50 for the following compound: COc1ccc(N(CC(=O)NCCC[Te]c2ccccc2)C(=O)CCSC2=C(C)C(=O)c3ccccc3C2=O)cc1 19.1

Fill in CC50 for record COc1ccc(N(CC(=O)NCCC[Te]c2ccccc2)C(=O)CNC(=O)OC(C)(C)C)cc1 8.71

###

experiment: Growth inhibition of human HOP92 cells after 48 hrs; assay type: functional; conditions: HOP-92, 48 h, read-out: pTGI (converted)
measurement-name: TGI (µM)
# number only, unit µM dropped from output

Hello, please tell me recorded TGI for this one: CC1=C(SCCC(=O)OCC(=O)NCCC[Te]c2ccccc2)C(=O)c2ccccc2C1=O 4.9

Report TGI for COc1ccc(N(CC(=O)NCCC[Te]c2ccccc2)C(=O)CCSC2=C(C)C(=O)c3ccccc3C2=O)cc1 3.98

Indicate its recorded TGI; the compound in question is COc1ccc(N(CC(=O)NCCC[Te]c2ccccc2)C(=O)c2ccccc2)cc1 10

Please report TGI for the following compound: COc1ccc(N(CC(=O)NCCC[Te]c2ccccc2)C(=O)CNC(=O)OC(C)(C)C)cc1 4.9

###

tested on: SNB-75; experiment: Growth inhibition of human SNB75 cells after 48 hrs; assay type: functional; conditions: SNB-75, 48 h
measurement-name: GI50 (nM)
Express your answer in nM, writing the number without its unit.

Look up and report measured GI50 for this entry: CC1=C(SCCC(=O)OCC(=O)NCCC[Te]c2ccccc2)C(=O)c2ccccc2C1=O 1480

Please report the measured GI50 for COc1ccc(N(CC(=O)NCCC[Te]c2ccccc2)C(=O)CCSC2=C(C)C(=O)c3ccccc3C2=O)cc1 1820

Report GI50, nothing else, for this compound: COc1ccc(N(CC(=O)NCCC[Te]c2ccccc2)C(=O)CNC(=O)OC(C)(C)C)cc1 6610

Tell me measured GI50 for COc1ccc(N(CC(=O)NCCC[Te]c2ccccc2)C(=O)c2ccccc2)cc1 please. 2570

###

Task for the reader: assign each of the following molecules its reported diameter of the inhibition zone (DIZ).
test system: Micrococcus luteus; test: Antimicrobial activity against Micrococcus luteus assessed as inhibition at 20 ug/6 mm disk after 1 to 2 days by agar diffusion assay; type: functional
A complete answer gives the number followed by the unit.

For the molecule COc1ccc(N(CC(=O)NCCC[Te]c2ccccc2)C(=O)c2ccccc2)cc1 , report diameter of the inhibition zone (DIZ). 13 mm

Provide one value: measured diameter of the inhibition zone (DIZ) of COc1ccc(N(CC(=O)NCCC[Te]c2ccccc2)C(=O)/C=C/c2ccccc2)cc1 8 mm

Look up and report measured diameter of the inhibition zone (DIZ) for this entry: COc1ccc(N(CC(=O)NCCC[Se]c2ccccc2)C(=O)C#Cc2ccccc2)cc1 0 mm
